# ASSAYED TARGET: T1, human TfR extracellular domain with N-terminal His tag (human, UniProt P02786 89-760)
# T1 construct: Biotinylated in some assays; also called huTfR; HuTfR
# T1 sequence (P02786 89-760 G142S): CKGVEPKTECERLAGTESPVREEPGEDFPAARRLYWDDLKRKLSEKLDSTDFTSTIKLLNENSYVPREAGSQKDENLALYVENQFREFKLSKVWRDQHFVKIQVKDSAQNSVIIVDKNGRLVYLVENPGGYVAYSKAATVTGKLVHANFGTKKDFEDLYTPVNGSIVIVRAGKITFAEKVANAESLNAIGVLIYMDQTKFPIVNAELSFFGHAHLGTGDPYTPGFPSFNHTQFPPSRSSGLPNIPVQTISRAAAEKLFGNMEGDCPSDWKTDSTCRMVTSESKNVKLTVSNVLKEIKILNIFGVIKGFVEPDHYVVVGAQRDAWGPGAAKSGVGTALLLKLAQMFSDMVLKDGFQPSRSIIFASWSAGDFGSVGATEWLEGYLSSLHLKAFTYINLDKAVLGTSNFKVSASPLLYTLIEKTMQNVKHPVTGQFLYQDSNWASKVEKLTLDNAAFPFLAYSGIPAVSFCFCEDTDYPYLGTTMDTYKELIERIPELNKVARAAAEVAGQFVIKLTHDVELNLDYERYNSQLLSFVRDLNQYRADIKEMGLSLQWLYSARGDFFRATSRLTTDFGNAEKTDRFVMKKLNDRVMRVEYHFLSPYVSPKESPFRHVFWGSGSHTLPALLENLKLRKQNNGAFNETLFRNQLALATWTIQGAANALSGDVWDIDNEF
# PROTOCOL TEXT: SPR, TfR captured by anti-His, Fab injected

{"columns": ["BINDER", "UNIT TEXT", "kon"],
 "data": [
  ["Hu15G11.HC34A Fab (Fab, V domains shown, Fab) VH: EVQLVQSGAEVKKPGASVKVSCKASGYTFTSYWAHWVRQAPGQRLEWIGEINPTNGRTNYIEKFKSRATLTVDKSASTAYMELSSLRSEDTAVYYCARGTRAYHYWGQGTMVTVSS VL: DIQMTQSPSSLSASVGDRVTITCRASDNLYSNLAWYQQKPGKSPKLLVYDATNLADGVPSRFSGSGSGTDYTLTISSLQPEDFATYYCQHFWGTPLTFGQGTKVEIK", "M⁻¹ s⁻¹", 564000],
  ["Hu15G11.HC51A Fab (Fab, V domains shown, Fab) VH: EVQLVQSGAEVKKPGASVKVSCKASGYTFTSYWMHWVRQAPGQRLEWIGEANPTNGRTNYIEKFKSRATLTVDKSASTAYMELSSLRSEDTAVYYCARGTRAYHYWGQGTMVTVSS VL: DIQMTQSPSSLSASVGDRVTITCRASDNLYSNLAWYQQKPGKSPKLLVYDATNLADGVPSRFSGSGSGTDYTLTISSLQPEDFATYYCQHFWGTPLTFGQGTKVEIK", "M⁻¹ s⁻¹", 433000],
  ["Hu15G11.v5.Fab (Fab, V domains shown, Fab) VH: EVQLVQSGAEVKKPGASVKVSCKASGYTFTSYWMHWVRQAPGQRLEWIGEINPTNGRTNYIEKFKSRATLTVDKSASTAYMELSSLRSEDTAVYYCARGTRAYHYWGQGTMVTVSS VL: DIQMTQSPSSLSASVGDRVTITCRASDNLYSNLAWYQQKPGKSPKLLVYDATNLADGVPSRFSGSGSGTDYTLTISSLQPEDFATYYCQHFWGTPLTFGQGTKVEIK", "M⁻¹ s⁻¹", 674000],
  ["Hu15G11.HC53A Fab (Fab, V domains shown, Fab; also called 15G11.53A Fab) VH: EVQLVQSGAEVKKPGASVKVSCKASGYTFTSYWMHWVRQAPGQRLEWIGEINPANGRTNYIEKFKSRATLTVDKSASTAYMELSSLRSEDTAVYYCARGTRAYHYWGQGTMVTVSS VL: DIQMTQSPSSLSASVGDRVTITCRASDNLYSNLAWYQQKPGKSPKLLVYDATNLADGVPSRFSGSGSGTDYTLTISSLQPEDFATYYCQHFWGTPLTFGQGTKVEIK", "M⁻¹ s⁻¹", 890000]
]}
